# pIC50 per record follows
molecular target: SRPK1 (Homo sapiens, UniProt Q96SB4); test: SRPK1 assay, Method 1 (ADP-Glo luminescence); format: biochemical; conditions: Method 1 (no asterisk): substrate Human SRSF1/SF2, 25° C. for 90 min, test compounds 30 μM top, 3-fold, duplicate
Sequence (Q96SB4 whole entry): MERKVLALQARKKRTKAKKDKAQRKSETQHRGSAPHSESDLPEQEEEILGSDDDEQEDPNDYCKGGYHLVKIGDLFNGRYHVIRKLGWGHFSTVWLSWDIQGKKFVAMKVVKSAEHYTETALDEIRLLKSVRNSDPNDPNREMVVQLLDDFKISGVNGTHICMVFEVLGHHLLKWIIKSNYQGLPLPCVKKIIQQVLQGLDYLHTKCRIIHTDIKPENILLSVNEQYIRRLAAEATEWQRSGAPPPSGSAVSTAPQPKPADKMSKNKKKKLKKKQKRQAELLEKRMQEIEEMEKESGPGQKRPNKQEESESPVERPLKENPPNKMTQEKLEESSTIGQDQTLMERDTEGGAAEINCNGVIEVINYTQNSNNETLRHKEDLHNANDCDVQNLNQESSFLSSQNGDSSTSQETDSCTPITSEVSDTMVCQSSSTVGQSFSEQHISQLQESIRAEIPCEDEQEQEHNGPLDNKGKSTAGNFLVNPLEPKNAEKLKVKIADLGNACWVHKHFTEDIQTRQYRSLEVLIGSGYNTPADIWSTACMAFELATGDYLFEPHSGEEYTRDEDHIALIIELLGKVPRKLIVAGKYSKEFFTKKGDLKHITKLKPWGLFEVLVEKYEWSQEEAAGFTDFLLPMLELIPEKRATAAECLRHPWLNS
pIC50: −log10 of the molar value.

Some molecules with known pIC50 results, for comparison:
Problem: Consider the molecule CC(=O)OC1CCN(c2ncc(C(F)(F)F)cc2NC(=O)c2ccc(C(F)(F)F)cn2)CC1 [Compound 068] . State its measured pIC50.
Solution: < 4.52

Problem: Consider the molecule O=C(Nc1cc(C(F)(F)F)cnc1N1CCc2[nH]ncc2C1)c1ccc(-c2cn[nH]c2)o1 [Compound 123] . State its measured pIC50.
Solution: < 4.52

Problem: Consider the molecule O=C(Nc1cc(C(F)(F)F)cnc1N1CCC(O)CC1)c1ccncc1 [Compound 046] . State its measured pIC50.
Solution: < 4.52

Further cases:
Problem: Consider the molecule C[C@@H]1C[C@@H](O)CCN1c1ncc(C2CC2)cc1NC(=O)c1ccc(Br)o1 [Compound 116] . State its measured pIC50.
Solution: < 4.52

Problem: Consider the molecule O=C(Nc1cc(C(F)(F)F)cnc1-c1cn[nH]c1)c1ccc(-c2ccncc2)o1 [Compound 014] . State its measured pIC50.
Solution: < 4.52

Problem: Consider the molecule C[C@@H]1C[C@H](O)CCN1c1ncc(C2CC2)cc1NC(=O)c1ccc(-c2ccnc(N)c2)o1 [Compound 128] . State its measured pIC50.
Solution: < 4.52

Problem: Consider the molecule Nc1cc(-c2ccc(C(=O)Nc3cc(C4CC4)cnc3N3CCc4[nH]ncc4C3)o2)cc(N)n1 [Compound 131] . State its measured pIC50.
Solution: < 4.52

Problem: Consider the molecule O=C(Nc1cc(C(F)(F)F)cnc1-c1cccnc1)c1ccc(C2CCOCC2)o1 [Compound 009] . State its measured pIC50.
Solution: < 4.52
